All figures here come from patent US20160251438A1.

# Test System: T1, recombinant soluble human GARP-TGFβ1 complex (human, UniProt Q14392 20-628; P01137 30-390)
# T1 construct: co-expressed in HEK293E, purified by the Strep-Tag; TGFβ consists of LAP and mature TGFβ; also called shGARP-TGFβ; rhGARP-TGFβ
# T1 sequence (Q14392 other isoform, or with tags, fused parts or gaps limits assumed, chain 1 of 2): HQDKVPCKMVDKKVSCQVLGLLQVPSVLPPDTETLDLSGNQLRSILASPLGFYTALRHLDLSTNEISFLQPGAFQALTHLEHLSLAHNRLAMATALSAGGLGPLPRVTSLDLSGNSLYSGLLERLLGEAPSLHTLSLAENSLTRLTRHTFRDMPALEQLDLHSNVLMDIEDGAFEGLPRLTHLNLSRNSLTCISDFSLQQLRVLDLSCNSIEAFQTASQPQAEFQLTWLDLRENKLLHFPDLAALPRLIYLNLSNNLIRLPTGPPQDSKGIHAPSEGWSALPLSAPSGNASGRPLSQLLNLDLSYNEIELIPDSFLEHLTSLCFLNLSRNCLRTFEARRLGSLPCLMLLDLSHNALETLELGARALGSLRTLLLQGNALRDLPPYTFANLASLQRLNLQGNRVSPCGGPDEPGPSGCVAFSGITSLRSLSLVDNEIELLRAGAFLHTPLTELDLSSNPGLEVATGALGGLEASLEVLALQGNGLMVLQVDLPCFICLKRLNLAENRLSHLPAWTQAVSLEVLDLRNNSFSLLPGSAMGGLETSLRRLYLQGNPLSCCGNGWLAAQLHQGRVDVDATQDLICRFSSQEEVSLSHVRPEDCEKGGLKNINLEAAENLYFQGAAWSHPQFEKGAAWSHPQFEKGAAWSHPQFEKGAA
# T1 sequence (P01137 30-390 limits assumed, chain 2 of 2): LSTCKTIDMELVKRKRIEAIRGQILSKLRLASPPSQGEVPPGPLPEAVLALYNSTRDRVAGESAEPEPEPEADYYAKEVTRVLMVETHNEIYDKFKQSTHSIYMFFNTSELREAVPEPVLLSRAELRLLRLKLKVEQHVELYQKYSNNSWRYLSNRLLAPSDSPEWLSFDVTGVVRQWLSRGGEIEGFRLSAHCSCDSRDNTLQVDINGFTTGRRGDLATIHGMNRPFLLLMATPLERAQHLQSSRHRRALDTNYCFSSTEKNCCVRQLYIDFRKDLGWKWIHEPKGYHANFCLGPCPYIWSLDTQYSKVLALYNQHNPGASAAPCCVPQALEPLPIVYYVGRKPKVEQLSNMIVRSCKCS
# Protocol Text: SPR (Biacore), hGARP-TGFβ1 immobilised
In this section we review reported koff values for a set of binders.
Value expressed in s⁻¹; do not type the unit.

>  <Binder>
LHG-10.3-D (antibody, human IgG1, V domains shown) VH: EVQLVQPGAELRNSGASVKVSCKASGYRFTSYYIDWVRQAPGQGLEWMGRIDPEDGGTKYAQKFQGRVTFTADTSTSTAYVELSSLRSEDTAVYYCARNEWETVVVGDLMYEYEYWGQGTQVTVSS VL: DIQMTQSPSSLSASLGDRVTITCQASQSIVSYLAWYQQKPGQAPKLLIYGASRLQTGVPSRFSGSGSGTSFTLTISGLEAEDAGTYYCQQYASAPVTFGQGTGVELK

>  <Result Type>
koff

>  <Observed Result>
5.18e-06

$$$$
>  <Binder>
LHG-10-D (antibody, human IgG1, V domains shown) VH: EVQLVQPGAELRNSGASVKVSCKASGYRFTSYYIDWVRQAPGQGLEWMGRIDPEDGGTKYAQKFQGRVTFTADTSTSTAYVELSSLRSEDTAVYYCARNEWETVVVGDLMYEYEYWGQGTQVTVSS VL: DIQMTQSPTSLSASLGDRVTITCQASQSISSYLAWYQQKPGQAPKLLIYGASRLQTGVPSRFSGSGSGTSFTLTISGLEAEDAGTYYCQQYDSLPVTFGQGTKVELK

>  <Result Type>
koff

>  <Observed Result>
2.62e-05

$$$$

QUERY: What value of measured koff is listed for LHG-10.6 (antibody, human IgG1, V domains shown, VK-shuffled variant of LHG-10, human IgG1) VH: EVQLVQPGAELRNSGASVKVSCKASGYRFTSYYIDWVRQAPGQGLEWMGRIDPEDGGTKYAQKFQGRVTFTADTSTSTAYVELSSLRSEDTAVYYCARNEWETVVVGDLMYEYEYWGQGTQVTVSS VL: DIQMTQSPSSLSASLGDRVTITCQASQSISSYLAWYQQKPGQAPNILIYGASRLKTGVPSRFSGSGSGTSFTLTISGLEAEDAGTYYCQQYASVPVTFGQGTKVELK ?
RESULT: 4.4e-06
